Would you mind telling me the reported GI50 of each entry?
Reply with just the number (in nM).

Task item: Provide GI50, recorded with SNB-78, of c1ccc(C2=C(c3ccc(OCCN4CCCCCC4)cc3)c3ccc(OCCN4CCCCCC4)cc3CC2)cc1 [Naforidaifen F]
Reply: 1700

Task item: Provide GI50, recorded with SNB-78, of c1ccc(C2=C(c3ccc(OCCN4CCCC4)cc3)c3ccc(OCCN4CCCC4)cc3CC2)cc1 [Naforidaifen B]
Reply: 1910

Task item: Provide GI50, recorded with SNB-78, of c1ccc(C2=C(c3ccc(OCCN4CCOCC4)cc3)c3ccc(OCCN4CCOCC4)cc3CC2)cc1 [Naforidaifen D]
Reply: 28800

Task item: Provide GI50, recorded with SNB-78, of CN(C)CCOc1ccc(C2=C(c3ccccc3)CCc3cc(OCCN(C)C)ccc32)cc1 [Naforidaifen A]
Reply: 1820

---

measurement_name: IC50 (µM)
Reply with just the number (in µM).

Task item: Provide IC50, recorded with 20S proteasome caspase-like activity (Homo sapiens), of c1ccc(C2=C(c3ccc(OCCN4CCCC4)cc3)c3ccc(OCCN4CCCC4)cc3CC2)cc1
Reply: 2.5

Task item: Provide IC50, recorded with 20S proteasome caspase-like activity (Homo sapiens), of c1ccc(C2=C(c3ccc(OCCN4CCCCCC4)cc3)c3ccc(OCCN4CCCCCC4)cc3CC2)cc1
Reply: 5.1

Task item: Provide IC50, recorded with 20S proteasome caspase-like activity (Homo sapiens), of c1ccc(C2=C(c3ccc(OCCN4CCCCC4)cc3)c3ccc(OCCN4CCCCC4)cc3CC2)cc1
Reply: 5.1

Task item: Provide IC50, recorded with 20S proteasome caspase-like activity (Homo sapiens), of c1ccc(C2=C(c3ccc(OCCN4CCOCC4)cc3)c3ccc(OCCN4CCOCC4)cc3CC2)cc1
Reply: 4.6

---

Assay system 20S proteasome trypsin-like activity (Homo sapiens); read-out recorded as IC50.

Task item: Kindly indicate its recorded IC50. Item: c1ccc(C2=C(c3ccc(OCCN4CCCCC4)cc3)c3ccc(OCCN4CCCCC4)cc3CC2)cc1
Reply: > 10 µM

Task item: Kindly indicate its recorded IC50. Item: CCN(CC)CCOc1ccc(C2=C(c3ccccc3)CCc3cc(OCCN(CC)CC)ccc32)cc1
Reply: > 10 µM

Task item: Kindly indicate its recorded IC50. Item: c1ccc(C2=C(c3ccc(OCCN4CCOCC4)cc3)c3ccc(OCCN4CCOCC4)cc3CC2)cc1
Reply: 4.1 µM

Task item: Kindly indicate its recorded IC50. Item: c1ccc(C2=C(c3ccc(OCCN4CCCC4)cc3)c3ccc(OCCN4CCCC4)cc3CC2)cc1
Reply: 8.6 µM

Task item: Kindly indicate its recorded IC50. Item: c1ccc(C2=C(c3ccc(OCCN4CCCCCC4)cc3)c3ccc(OCCN4CCCCCC4)cc3CC2)cc1
Reply: > 10 µM

---

test system: ovarian cancer cells; test: Proliferation inhibition, ovarian cancer cell panel (summary); assay type: cell-based; conditions: all of the five types of ovarian cancer cell lines; read-out: effective concentration
pIC50: −log10 of the molar value.
measurement_name: pIC50

Task item: Kindly indicate its recorded pIC50. Item: c1ccc(C2=C(c3ccc(OCCN4CCCCCC4)cc3)c3ccc(OCCN4CCCCCC4)cc3CC2)cc1 [Naforidaifen F]
Reply: 5.72 to 5.92

Task item: Kindly indicate its recorded pIC50. Item: CN(C)CCCOc1ccc(C2=C(c3ccccc3)CCc3cc(OCCCN(C)C)ccc32)cc1 [Naforidaifen G]
Reply: 5.72 to 5.92

---

target: α-chymotrypsin (Bos taurus); test: α-Chymotrypsin-like activity inhibition test; format: biochemical
measurement_name: α-chymotrypsin inhibition

[
  {
    "sample_smiles": "c1ccc(C2=C(c3ccc(OCCN4CCCCCC4)cc3)c3ccc(OCCN4CCCCCC4)cc3CC2)cc1",
    "test_system": "α-chymotrypsin (Bos taurus)",
    "α-chymotrypsin inhibition": "none"
  },
  {
    "sample_smiles": "c1ccc(C2=C(c3ccc(OCCN4CCCC4)cc3)c3ccc(OCCN4CCCC4)cc3CC2)cc1",
    "test_system": "α-chymotrypsin (Bos taurus)",
    "α-chymotrypsin inhibition": "none"
  },
  {
    "sample_smiles": "c1ccc(C2=C(c3ccc(OCCN4CCCCC4)cc3)c3ccc(OCCN4CCCCC4)cc3CC2)cc1",
    "test_system": "α-chymotrypsin (Bos taurus)",
    "α-chymotrypsin inhibition": "none"
  },
  {
    "sample_smiles": "c1ccc(C2=C(c3ccc(OCCN4CCOCC4)cc3)c3ccc(OCCN4CCOCC4)cc3CC2)cc1",
    "test_system": "α-chymotrypsin (Bos taurus)",
    "α-chymotrypsin inhibition": "none"
  }
]

Then there is this compound:
Task item: Kindly indicate its recorded α-chymotrypsin inhibition. Item: CCN(CC)CCOc1ccc(C2=C(c3ccccc3)CCc3cc(OCCN(CC)CC)ccc32)cc1
Reply: none

---

system: HCC2998; test: Proliferation inhibition of colon cancer cells; assay type: cell-based; details: Homo sapiens, HCC 2998
Structures can show the parent of a compound that is named as a salt.
Would you mind telling me the reported GI50 of each entry?
Reply with just the number (in µM).

Task item: Provide GI50, recorded with HCC2998, of c1ccc(C2=C(c3ccc(OCCN4CCCCC4)cc3)c3ccc(OCCN4CCCCC4)cc3CC2)cc1
Reply: 1.35

Task item: Provide GI50, recorded with HCC2998, of c1ccc(C2=C(c3ccc(OCCN4CCOCC4)cc3)c3ccc(OCCN4CCOCC4)cc3CC2)cc1
Reply: 17.8

Task item: Provide GI50, recorded with HCC2998, of CC/C(=C(\c1ccccc1)c1ccc(OCCN(C)C)cc1)c1ccccc1 [TAM, tamoxifen citrate, reference compound]
Reply: 2.95

Task item: Provide GI50, recorded with HCC2998, of CN(C)CCOc1ccc(C2=C(c3ccccc3)CCc3cc(OCCN(C)C)ccc32)cc1
Reply: 1.48

Task item: Provide GI50, recorded with HCC2998, of c1ccc(C2=C(c3ccc(OCCN4CCCC4)cc3)c3ccc(OCCN4CCCC4)cc3CC2)cc1
Reply: 1.58

Task item: Provide GI50, recorded with HCC2998, of c1ccc(C2=C(c3ccc(OCCN4CCCCCC4)cc3)c3ccc(OCCN4CCCCCC4)cc3CC2)cc1
Reply: 1.07

Task item: Provide GI50, recorded with HCC2998, of CN(C)CCCOc1ccc(C2=C(c3ccccc3)CCc3cc(OCCCN(C)C)ccc32)cc1
Reply: 1.29

Task item: Provide GI50, recorded with HCC2998, of CCN(CC)CCOc1ccc(C2=C(c3ccccc3)CCc3cc(OCCN(CC)CC)ccc32)cc1
Reply: 1.58

---

measurement_name: log10 IC50 (log10 of the value in µM)
Please keep in mind that the values are log10 of IC50 expressed in µM.

Task item: Provide log10 IC50, recorded with 20S proteasome chymotrypsin-like activity (Homo sapiens, UniProt P28074), of c1ccc(C2=C(c3ccc(OCCN4CCCC4)cc3)c3ccc(OCCN4CCCC4)cc3CC2)cc1 [Naforidaifen B]
Reply: 0.66

Task item: Provide log10 IC50, recorded with 20S proteasome chymotrypsin-like activity (Homo sapiens, UniProt P28074), of CC(C)[C@H](O)[C@@]12NC(=O)[C@H](C)[C@@H]1OC2=O [Clasto-Lactacystin β-Lactone, reference compound]
Reply: -1.41

Task item: Provide log10 IC50, recorded with 20S proteasome chymotrypsin-like activity (Homo sapiens, UniProt P28074), of c1ccc(C2=C(c3ccc(OCCN4CCCCCC4)cc3)c3ccc(OCCN4CCCCCC4)cc3CC2)cc1 [Naforidaifen F]
Reply: 0.63

Task item: Provide log10 IC50, recorded with 20S proteasome chymotrypsin-like activity (Homo sapiens, UniProt P28074), of c1ccc(C2=C(c3ccc(OCCN4CCCCC4)cc3)c3ccc(OCCN4CCCCC4)cc3CC2)cc1 [Naforidaifen C]
Reply: 0.51

Task item: Provide log10 IC50, recorded with 20S proteasome chymotrypsin-like activity (Homo sapiens, UniProt P28074), of CCN(CC)CCOc1ccc(C2=C(c3ccccc3)CCc3cc(OCCN(CC)CC)ccc32)cc1 [Naforidaifen E]
Reply: 1.00

Task item: Provide log10 IC50, recorded with 20S proteasome chymotrypsin-like activity (Homo sapiens, UniProt P28074), of c1ccc(C2=C(c3ccc(OCCN4CCOCC4)cc3)c3ccc(OCCN4CCOCC4)cc3CC2)cc1 [Naforidaifen D]
Reply: 0.83

---

System: St-4
Assay: Proliferation inhibition of stomach cancer cells
Format: cell-based
Conditions: Homo sapiens
Method: As a comparison for the inhibition activity, tamoxifen citrate (TAM) was used. In the Table, the concentration units are μM. In the same way as in Example 9, the proliferation inhibition activity of naforidaifens A to G was measured with respect to six types of stomach cancer cells (St-4, MKN1, MKN7, MKN28, MKN45, MKN74). In the Table, the concentration units are μM.
Structures can show the parent of a compound that is named as a salt.
Would you mind telling me the reported GI50 of each entry?
Reply with just the number (in nM).

Task item: Kindly indicate its recorded GI50. Item: c1ccc(C2=C(c3ccc(OCCN4CCOCC4)cc3)c3ccc(OCCN4CCOCC4)cc3CC2)cc1
Reply: 15500

Task item: Kindly indicate its recorded GI50. Item: c1ccc(C2=C(c3ccc(OCCN4CCCC4)cc3)c3ccc(OCCN4CCCC4)cc3CC2)cc1
Reply: 1860

Task item: Kindly indicate its recorded GI50. Item: CN(C)CCOc1ccc(C2=C(c3ccccc3)CCc3cc(OCCN(C)C)ccc32)cc1
Reply: 1480

Task item: Kindly indicate its recorded GI50. Item: CN(C)CCCOc1ccc(C2=C(c3ccccc3)CCc3cc(OCCCN(C)C)ccc32)cc1
Reply: 1480

Task item: Kindly indicate its recorded GI50. Item: c1ccc(C2=C(c3ccc(OCCN4CCCCC4)cc3)c3ccc(OCCN4CCCCC4)cc3CC2)cc1
Reply: 1580

Task item: Kindly indicate its recorded GI50. Item: CCN(CC)CCOc1ccc(C2=C(c3ccccc3)CCc3cc(OCCN(CC)CC)ccc32)cc1
Reply: 1550

Task item: Kindly indicate its recorded GI50. Item: CC/C(=C(\c1ccccc1)c1ccc(OCCN(C)C)cc1)c1ccccc1 [TAM, tamoxifen citrate, reference compound]
Reply: 6310

Task item: Kindly indicate its recorded GI50. Item: c1ccc(C2=C(c3ccc(OCCN4CCCCCC4)cc3)c3ccc(OCCN4CCCCCC4)cc3CC2)cc1
Reply: 1580
